Reference source: patent US20220259593A1

Test system: K562 CRISPRi cells
Experiment: Constant region variant library pooled growth screen, K562
Type: cell-based, human
Conditions: sgRNA constant region variants; activity relative to the original, un-modified constant region cr995
assay-metric: Mean relative activity
No unit in the answer, only the number.

Illustrative cases are given below, each with its answer.
I have this molecule here, cr162 (nucleic acid, listed as DNA, chemistry not fully specified) guide: GTTTAAGAGCTAAGCTGGAAACAGCATAGCAAGTTTAAATAAGGCTAGTCCGTTATCAACTTGAAAAAGTGGCACCGAGTCGGAGCT , and I need its recorded Mean relative activity.
0.8263

Okay, and cr500 (nucleic acid, listed as DNA, chemistry not fully specified) guide: GTTTAAGAGCTAAGCTGGAAACAGCATAGCAAGTTTAAATAAGGCTAGTCCGTTATCAACTTGAAAAAGTGGCACCGAGGCGGTGCT ?
0.5743

What do we get for cr216 (nucleic acid, listed as DNA, chemistry not fully specified) guide: GTTTAAGAGCTAAGCTGGAAACAGCATAGCAAGTTTAAATAAGACTAGTTCGTTATCAACTTGAAAAAGTGGCACCGAGTCGGTGCT ?
0.8652

# ---- query molecule ----
Name the reported Mean relative activity value associated with the molecule cr922 (nucleic acid, listed as DNA, chemistry not fully specified) guide: GTTTAAGAGCTAAGCTGGAAACAGCATAGCAAGGTTAAATAAGGCTAGTCCGTTATCAACTTGAAAAAGTGGCAACGAGTCGTTGCT
0.02327
